- target_under_test: Prostaglandin D2 receptor (Homo sapiens, UniProt Q13258)
- assay_protocol: In vitro inhibition of [3H]- PGD-2 radioligand binding to prostaglandin D2 receptor on human platelet membrane
pIC50: −log10 of the molar value.
assay_endpoint: pIC50

Examples with answers:
# smiles_entry, assay_endpoint, reported_measurement
data = [
    ("O=C(O)CCC/C=C\\C[C@@H]1[C@H]2CC[C@H](C2)[C@H]1NS(=O)(=O)c1ccc(-c2nnnn2-c2ccccc2)cc1", "pIC50", 7.21),
    ("O=C(O)CCC/C=C\\C[C@@H]1[C@H]2CC[C@H](C2)[C@H]1NS(=O)(=O)c1ccc2cc(-c3ccc(O)cc3)[nH]c2c1", "pIC50", 7.74),
    ("COc1ccc2oc3ccc(S(=O)(=O)N[C@@H]4[C@@H]5CC[C@@H](C5)[C@H]4C/C=C\\CCCC(=O)O)cc3c2c1", "pIC50", 7.47),
    ("O=C(O)CCC/C=C\\C[C@@H]1[C@H]2CC[C@H](C2)[C@H]1NS(=O)(=O)c1ccc(-c2ccccc2)s1", "pIC50", 6.24),
    ("COc1ccc(-c2cc3ccc(S(=O)(=O)N[C@@H]4[C@@H]5CC[C@@H](C5)[C@H]4C/C=C\\CCCC(=O)O)cc3[nH]2)cc1", "pIC50", 7.82),
]

A = COc1ccc(S(=O)(=O)N[C@@H]2[C@@H]3CC[C@@H](C3)[C@H]2C/C=C\CCCC(=O)O)cc1[N+](=O)[O-]
B = O=C(O)CCC/C=C\C[C@@H]1[C@H]2CC[C@H](C2)[C@H]1NS(=O)(=O)c1ccc(-c2cccs2)s1
Quick one: lower pIC50, A or B ? Answer format: the label of the selected item.
A
(A: 5.27, B: 6.39)

----------
- target_under_test: Prostaglandin D2 receptor (Homo sapiens, UniProt Q13258)
- Sequence (Q13258 whole entry): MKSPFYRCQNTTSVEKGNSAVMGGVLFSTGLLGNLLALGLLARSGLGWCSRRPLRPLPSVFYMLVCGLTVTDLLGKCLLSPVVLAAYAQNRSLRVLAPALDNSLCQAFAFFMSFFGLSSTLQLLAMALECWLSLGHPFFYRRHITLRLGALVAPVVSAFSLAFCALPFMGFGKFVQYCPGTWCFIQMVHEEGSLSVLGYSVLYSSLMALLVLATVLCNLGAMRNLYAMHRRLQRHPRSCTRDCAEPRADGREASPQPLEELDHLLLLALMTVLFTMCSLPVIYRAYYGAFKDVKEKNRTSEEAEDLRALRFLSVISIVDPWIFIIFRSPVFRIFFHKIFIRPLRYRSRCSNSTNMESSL
- assay_protocol: In vitro inhibition of cAMP formation evoked by prostaglandin D2 receptor in human platelets
- Type: functional
assay_endpoint: IC50 (nM)

# smiles_entry, IC50 / nM
rows = [
    ("CC(C)(C)c1ccc(S(=O)(=O)N[C@@H]2[C@@H]3CC[C@@H](C3)[C@H]2C/C=C\\CCCC(=O)O)cc1", 720),
]

I = O=C(O)CCC/C=C\C[C@@H]1[C@H]2CC[C@H](C2)[C@H]1NS(=O)(=O)c1ccc2oc3cc([N+](=O)[O-])ccc3c2c1
II = COc1ccc(S(=O)(=O)N[C@@H]2[C@@H]3CC[C@@H](C3)[C@H]2C/C=C\CCCC(=O)O)cc1
# argmax over IC50 for candidates I and II Write the label of whichever entry you select.
II
(II: 390 nM, I: 57 nM)

A = O=C(O)CCC/C=C\C[C@@H]1[C@H]2CC[C@H](C2)[C@H]1NS(=O)(=O)c1ccc2cc(-c3ccccc3)[nH]c2c1
B = COc1ccc(-c2cc3ccc(S(=O)(=O)N[C@@H]4[C@@H]5CC[C@@H](C5)[C@H]4C/C=C\CCCC(=O)O)cc3[nH]2)cc1
C = O=C(O)CCC/C=C\C[C@@H]1[C@H]2CC[C@H](C2)[C@H]1NS(=O)(=O)c1ccc2cc(-c3ccc(O)cc3)[nH]c2c1
D = O=C(O)CCC/C=C\C[C@@H]1[C@H]2CC[C@H](C2)[C@H]1NS(=O)(=O)c1ccc2sc3ccccc3c2c1
rank_up(items): orders items by reported IC50 in ascending numerical order. # output: labels, in the requested order
C, B, A, D

----------
- target_under_test: Prostaglandin D2 receptor (Homo sapiens, UniProt Q13258)
- assay_protocol: In vitro inhibition of cAMP formation evoked by prostaglandin D2 receptor in human platelets
- Assay type: functional
pIC50: −log10 of the molar value.
assay_endpoint: pIC50

Study these solved cases before continuing.
# smiles_entry, pIC50
data = [
    ("O=C(O)CCC/C=C\\C[C@@H]1[C@H]2CC[C@H](C2)[C@H]1NS(=O)(=O)c1ccc(Nc2ccccc2)cc1", 6.80),
    ("O=C(O)CCC/C=C\\C[C@@H]1[C@H]2CC[C@H](C2)[C@H]1NS(=O)(=O)c1ccc(/C=C\\c2ccccc2)cc1", 6.74),
]

A = O=C(O)CCC/C=C\C[C@@H]1[C@H]2CC[C@H](C2)[C@H]1NS(=O)(=O)c1ccc(-c2ccccc2)s1
B = O=C(O)CCC/C=C\C[C@@H]1[C@H]2CC[C@H](C2)[C@H]1NS(=O)(=O)c1ccc(NC(=O)c2ccccc2)cc1
C = COc1cc2c(cc1S(=O)(=O)N[C@@H]1[C@@H]3CC[C@@H](C3)[C@H]1C/C=C\CCCC(=O)O)oc1ccccc12
D = O=C(O)CCC/C=C\C[C@@H]1[C@H]2CC[C@H](C2)[C@H]1NS(=O)(=O)c1ccc(Oc2ccccc2)cc1
Form: Sort by [pIC50] Order [ ascending ] Answer format: the labels, in the requested order.
D, A, B, C

----------
- target_under_test: Prostaglandin D2 receptor (Homo sapiens, UniProt Q13258)
- Sequence (Q13258 whole entry): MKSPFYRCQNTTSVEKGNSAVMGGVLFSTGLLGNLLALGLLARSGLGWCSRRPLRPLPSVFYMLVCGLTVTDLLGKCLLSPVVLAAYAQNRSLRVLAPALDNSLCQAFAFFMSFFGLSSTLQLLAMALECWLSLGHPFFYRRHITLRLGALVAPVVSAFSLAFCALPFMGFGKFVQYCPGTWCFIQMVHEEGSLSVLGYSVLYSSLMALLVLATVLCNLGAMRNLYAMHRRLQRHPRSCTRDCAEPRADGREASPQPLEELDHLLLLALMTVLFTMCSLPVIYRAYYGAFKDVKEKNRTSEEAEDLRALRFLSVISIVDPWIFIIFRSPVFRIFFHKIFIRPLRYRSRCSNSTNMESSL
- assay_protocol: In vitro inhibition of [3H]- PGD-2 radioligand binding to prostaglandin D2 receptor on human platelet membrane
assay_endpoint: IC50 (nM)

Illustrative cases are given below, each with its answer.
# smiles_entry, reported_measurement
data = [
    ("COc1cc2c(cc1S(=O)(=O)N[C@@H]1[C@@H]3CC[C@@H](C3)[C@H]1C/C=C\\CCC(C)(C)C(=O)O)oc1ccccc12", 57),
    ("O=C(O)CCC/C=C\\C[C@@H]1[C@H]2CC[C@H](C2)[C@H]1NS(=O)(=O)c1ccc(NC(=O)c2ccccc2)cc1", 6000),
    ("O=C(O)CCC/C=C\\C[C@@H]1[C@H]2CC[C@H](C2)[C@H]1NS(=O)(=O)c1ccc2oc3ccc(O)cc3c2c1", 200),
    ("COc1ccc(-c2ccc(S(=O)(=O)N[C@@H]3[C@@H]4CC[C@@H](C4)[C@H]3C/C=C\\CCCC(=O)O)cc2)cc1", 450),
    ("Cn1c(-c2ccccc2)cc2ccc(S(=O)(=O)N[C@@H]3[C@@H]4CC[C@@H](C4)[C@H]3C/C=C\\CCCC(=O)O)cc21", 380),
]

a = O=C(O)CCC/C=C\C[C@@H]1[C@H]2CC[C@H](C2)[C@H]1NS(=O)(=O)c1ccc(/C=C/c2ccccc2)cc1
b = O=C(O)CCC/C=C\C[C@@H]1[C@H]2CC[C@H](C2)[C@H]1NS(=O)(=O)c1ccc2oc3cc([N+](=O)[O-])ccc3c2c1
c = Cc1cc(C)c(S(=O)(=O)N[C@@H]2[C@@H]3CC[C@@H](C3)[C@H]2C/C=C\CCCC(=O)O)c(C)c1
d = O=C(O)CCC/C=C\C[C@@H]1[C@H]2CC[C@H](C2)[C@H]1NS(=O)(=O)c1ccc(/C=C\c2ccccc2)cc1
Arrange the 4 compounds from largest to smallest IC50. Rank the items, then write their labels in that order.
c, b, d, a
(c: 5400 nM, b: 550 nM, d: 200 nM, a: 100 nM)

----------
- target_under_test: Prostaglandin D2 receptor (Homo sapiens, UniProt Q13258)
- assay_protocol: In vitro inhibition of [3H]- PGD-2 radioligand binding to prostaglandin D2 receptor on human platelet membrane
assay_endpoint: IC50 (nM)

I = O=C(O)CCC/C=C\C[C@@H]1[C@H]2CC[C@H](C2)[C@H]1NS(=O)(=O)c1ccc(C#Cc2ccccc2)cc1
II = O=C(O)CCC/C=C\C[C@@H]1[C@H]2CC[C@H](C2)[C@H]1NS(=O)(=O)c1ccc(-c2cc3ccccc3[nH]2)cc1
Could you point out whether the larger IC50 belongs to I or to II ? Provide the label of your selected option as the answer.
II

Attribution: ChEMBL document CHEMBL1145791
